# SYSTEM UNDER TEST: T1, cMet-Fc fusion protein (extracellular domain of the cMet receptor expressed as an Fc-fusion protein) (human, UniProt P08581 25-932)
# T1 construct: extracellular domain; also called soluble cMet-Fc-fusion protein; soluble cMet receptor; not shown: Fc part
# T1 sequence (P08581 25-932): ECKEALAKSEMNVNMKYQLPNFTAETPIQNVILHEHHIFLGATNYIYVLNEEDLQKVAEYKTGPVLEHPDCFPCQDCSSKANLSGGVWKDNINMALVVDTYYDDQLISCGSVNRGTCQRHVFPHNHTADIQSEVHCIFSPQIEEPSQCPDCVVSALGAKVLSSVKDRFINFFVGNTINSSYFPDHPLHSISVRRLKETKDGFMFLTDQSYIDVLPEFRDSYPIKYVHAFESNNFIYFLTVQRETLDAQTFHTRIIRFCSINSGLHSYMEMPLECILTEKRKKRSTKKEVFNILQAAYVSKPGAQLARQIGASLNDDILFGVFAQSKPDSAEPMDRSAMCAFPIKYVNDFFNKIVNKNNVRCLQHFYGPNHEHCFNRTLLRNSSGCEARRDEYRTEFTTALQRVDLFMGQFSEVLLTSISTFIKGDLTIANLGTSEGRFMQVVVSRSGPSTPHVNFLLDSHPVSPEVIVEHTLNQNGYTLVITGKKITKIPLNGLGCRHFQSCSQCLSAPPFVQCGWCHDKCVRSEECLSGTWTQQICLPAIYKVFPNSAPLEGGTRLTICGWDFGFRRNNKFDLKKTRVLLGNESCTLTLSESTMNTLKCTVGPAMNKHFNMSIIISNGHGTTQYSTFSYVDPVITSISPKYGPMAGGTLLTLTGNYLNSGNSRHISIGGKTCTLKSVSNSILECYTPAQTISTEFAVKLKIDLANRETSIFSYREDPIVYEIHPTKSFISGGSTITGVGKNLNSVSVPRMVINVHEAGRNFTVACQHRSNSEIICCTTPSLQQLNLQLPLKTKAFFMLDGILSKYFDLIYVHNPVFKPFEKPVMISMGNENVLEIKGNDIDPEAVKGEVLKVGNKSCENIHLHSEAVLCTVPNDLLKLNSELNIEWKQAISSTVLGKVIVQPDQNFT
# ASSAY COMMENT: fluorescence polarization, 20 nM fluorescein peptide, cMet-Fc varied
fluorescein = fluorescein label on the side chain of the C-terminal Lys
PARAMETER MEASURED: Kd (nM)
Give the value, in units of nM, as a plain number.

Query string: Kd for Ac-AGHAWCSGPPRFECWPPGTGGGK(fluorescein)-NH2 (cysteine pairing not given here) [329-D02 synthetic fluorescein-labeled peptide (SEQ ID NO: 061)] ?
Result string: 5200

Query string: Repeat with Ac-AGWISCAGPPTFACWPGGTGGGK(fluorescein)-NH2 (cysteine pairing not given here) [548-F06 synthetic fluorescein-labeled peptide (SEQ ID NO: 056)]
Result string: 2700

Query string: Can you handle Ac-AGGWECTGPPWFQCGYYGTGGGK(fluorescein)-NH2 (cysteine pairing not given here) [334-C08 synthetic fluorescein-labeled peptide (SEQ ID NO: 067)] next?
Result string: 1650

Query string: Next record, please: Ac-AGEWWCHGPPEFLCYWTGTGGGK(fluorescein)-NH2 (cysteine pairing not given here) [331-F01 synthetic fluorescein-labeled peptide (SEQ ID NO: 072)]
Result string: 980

Values were extracted from patent US20120039802A1.
